Reference source: PubChem BioAssay (NCI)

Assay: NCI Yeast Anticancer Drug Screen. Data for the rad50 strain (AID 155);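 note: 0% = growth of vehicle-only cultures of the same strain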
Conditions: S. cerevisiae rad50 strain growth inhibition; at 50.0 µM; stronger effect = higher value
The panel holds about 79,000 compounds, 15% with a hit somewhere; the sample as a whole holds those more often.

compound	growth inhibition / %
CCOP(=O)(OCC)/C(C#N)=C/c1cccc([N+](=O)[O-])c1	-14.2
CC1(C)CC(=O)C2=C(SC3=C(C2)C(=O)CC(C)(C)S3)S1	-5.75
CC(C)CC(NS(=O)(=O)Cc1ccccc1)C(=O)NN (stereo unspecified)	-26.9
N#CC(c1ccccc1)C(C#N)c1ccc(Cl)cc1 (stereo unspecified)	5.75
Nc1ncnc2c1c1c(=O)[nH]c(=O)[nH]c1n2C1OC(CO)C(O)C1O (stereo unspecified)	-1.95
O=C(/C=C/c1ccc(O)c(O)c1)OC1C[C@@](O)(C(=O)O)C[C@@H](O)[C@H]1OC(=O)/C=C/c1ccc(O)c(O)c1 (stereo partly specified)	17.8
NNC(=S)NC1CCCCC1	29.8
COc1ccc(N2C(=O)C3c4[nH]c5cccc(C)c5c4C4CCC(C(C)(C)C)CC4C3C2=O)cc1 (stereo unspecified)	8.75
CC(=O)/C=C/C=C\C=C/N=C(c1ccccc1)c1ccccc1	-7.5
c1ccc(C2CCN3c4ccc5ccccc5c4NCC23)cc1 (stereo unspecified)	36
N#CC1=C(N)NC(=O)C(C(N)=O)C1c1ccccc1Cl (stereo unspecified)	-16.6
